- Measurement Notes: activity coefficient (dimensionless); of the first substance listed, at infinite dilution; xn = mol fraction of the nth substance listed
- Stated Conditions: 353.15 K; Liquid; Chromatography; x1 = 0
Binary classification by activity coefficient, with 40 as an inclusive lower bound for satisfied; all other cases are not satisfied.

>  <Compound>
CCCCC [pentane] + CCn1cc[n+](C)c1.F[B-](F)(F)F

>  <Class Assignment>
satisfied

$$$$
>  <Compound>
CCCCCCCCCC [decane] + CCn1cc[n+](C)c1.F[B-](F)(F)F

>  <Class Assignment>
satisfied

$$$$
>  <Compound>
CCCCCC [hexane] + CCn1cc[n+](C)c1.F[B-](F)(F)F

>  <Class Assignment>
satisfied

$$$$
>  <Compound>
Cc1ccccc1C [1,2-dimethylbenzene] + CCn1cc[n+](C)c1.F[B-](F)(F)F

>  <Class Assignment>
not satisfied

$$$$
>  <Compound>
ClC(Cl)(Cl)Cl [tetrachloromethane] + CCn1cc[n+](C)c1.F[B-](F)(F)F

>  <Class Assignment>
not satisfied

$$$$
>  <Compound>
CC1CCCCC1 [methylcyclohexane] + CCn1cc[n+](C)c1.F[B-](F)(F)F

>  <Class Assignment>
satisfied

$$$$
>  <Compound>
C1=CCCCC1 [cyclohexene] + CCn1cc[n+](C)c1.F[B-](F)(F)F

>  <Class Assignment>
not satisfied

$$$$
>  <Compound>
CCCCCCCC [octane] + CCn1cc[n+](C)c1.F[B-](F)(F)F

>  <Class Assignment>
satisfied

$$$$
>  <Compound>
Cc1ccccc1 [toluene] + CCn1cc[n+](C)c1.F[B-](F)(F)F

>  <Class Assignment>
not satisfied

$$$$

Hey, just so you know, these numbers are from the NIST ThermoML archive (doi:10.1021/je800218g).
